Hey, just so you know, these numbers are from BigSolDB 2.1.

details: in NMP, 323.15 K
quantityName: solubility (mole fraction)
The answer should be a number; do not append a unit.

Problem: Look up solubility (mole fraction): Nc1c([N+](=O)[O-])c2no[n+]([O-])c2c2no[n+]([O-])c12
Solution: 0.0237

###

conditions: in toluene, 323.15 K
quantityName: solubility (mole fraction)
Just the number, please.

Problem: Using the record for Nc1c([N+](=O)[O-])c2no[n+]([O-])c2c2no[n+]([O-])c12 , report its solubility (mole fraction).
Solution: 7.28e-05

###

settings: in acetone, 288.15 K
quantityName: solubility (mole fraction)
Give only the figure.

Problem: Entry Nc1c([N+](=O)[O-])c2no[n+]([O-])c2c2no[n+]([O-])c12 : reported solubility (mole fraction) = ?
Solution: 0.000797

###

details: in acetic acid, 318.15 K
quantityName: solubility (mole fraction)

Problem: // solubility (mole fraction) lookup, key: Nc1c([N+](=O)[O-])c2no[n+]([O-])c2c2no[n+]([O-])c12
Solution: 0.000178

###

settings: in NMP, 333.15 K
quantityName: solubility (mole fraction)

Problem: Query (compound): Nc1c([N+](=O)[O-])c2no[n+]([O-])c2c2no[n+]([O-])c12 ; field requested: solubility (mole fraction)
Solution: 0.031

###

conditions: in NMP, 318.15 K
quantityName: solubility (mole fraction)
Lab note: record the figure alone, no unit after it.

Problem: Given the entry Nc1c([N+](=O)[O-])c2no[n+]([O-])c2c2no[n+]([O-])c12 , report its measured solubility (mole fraction).
Solution: 0.0206
